Ratio (-BP/+BP), DF-10000 values for the binders below.
Molecular target: T1, interleukin 18 binding protein (IL-18BP) (UniProt O95998 31-194)
T1 sequence (looked up): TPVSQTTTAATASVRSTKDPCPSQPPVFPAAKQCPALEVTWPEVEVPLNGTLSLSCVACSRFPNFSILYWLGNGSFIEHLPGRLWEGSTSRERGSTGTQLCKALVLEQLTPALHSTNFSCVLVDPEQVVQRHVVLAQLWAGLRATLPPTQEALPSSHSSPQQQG
Test: cell-based or functional assay
result_type: Ratio (-BP/+BP), DF-10000

1) IL-18 variant K53H, S55Q (ligand) YFGKLESKLSVIRNLNDQVLFIDQGNRPLFEDMTDSDMRDNAPRTIFIISMYHDQQPRGMAVTISVKSEKISTLSSENKIISFKEMNPPDNIKDTKSDIIFFQRSVPGHDNKMQFESSSYEGYFLASEKERDLFKLILKKEDELGDRSIMFTVQNED :: 1.03
2) IL-18 variant K53L, S55G (ligand) YFGKLESKLSVIRNLNDQVLFIDQGNRPLFEDMTDSDMRDNAPRTIFIISMYLDGQPRGMAVTISVKSEKISTLSSENKIISFKEMNPPDNIKDTKSDIIFFQRSVPGHDNKMQFESSSYEGYFLASEKERDLFKLILKKEDELGDRSIMFTVQNED :: 0.87
3) IL-18 variant K53H, S55H, N87D, H109I (ligand) YFGKLESKLSVIRNLNDQVLFIDQGNRPLFEDMTDSDMRDNAPRTIFIISMYHDHQPRGMAVTISVKSEKISTLSSENKIISFKEMDPPDNIKDTKSDIIFFQRSVPGIDNKMQFESSSYEGYFLASEKERDLFKLILKKEDELGDRSIMFTVQNED :: 1.1

Sourced from patent US20240182536A1
